Taken from PubChem BioAssay AID1508600.

Please go through the items and note down their z-score.
- assay procedure: Components of the Cytosolic LPS Sensing Pathway: Gene Identification via Genome-wide siRNA Screen
- measurement context: RAW264.7 macrophages, IL-1a HTRF, actives lie on both sides, screened at 100 nM (by protocol), cells primed 5 h with Pam3CSK4 first
The campaign covered roughly 53,000 sequences. About 3,700 (7%) were called active. The entries come from a sample that favours actives as a whole.
Answers are plain numbers.

Illustrative cases are given below, each with its answer.
Please look up its z-score: GGAACUCUGUGGGUGAGAATT against Dock8 -1.46

Please look up its z-score: GGUGGAAUUAUGCAUGCUATT against Olfr1094 1.45

Please look up its z-score: GGACCUUGAGAAAGUAGUCTT against Ms4a10 0.651

Please look up its z-score: GCAUGAGUUAUCAUAAUCATT against Itgb2 1.04

Please look up its z-score: GGCCCAUUGUUUGAGCCCATT against A530013C23Rik -0.961

List the reported z-score of each sequence below.
1. GGAAUCAGCAAACUCAACCTT against Rnase11
2. CCUAGAUUAAAUACUCGGATT against Saxo2
3. GCCUAGACCUAAGCAUAGCTT against Prpmp5
4. GGAAAAUACAGCGCGAAUUTT against Nexn
5. GGAAGACAUAUUUCAACAGTT against Ehhadh

1: -0.748; 2: 1.45; 3: 0.228; 4: 1.4; 5: -1.37

List the reported z-score of each sequence below.
1. CCAAAAAGUUCAGUGUAAUTT against Rad9b
2. GGCUGUAUGCUCAGACUGATT against Olfr147

1. -1.09
2. -1.25

----------
- assay procedure: Components of the Cytosolic LPS Sensing Pathway: Gene Identification via Genome-wide siRNA Screen
- measurement context: RAW264.7 macrophages, IL-1a HTRF, actives lie on both sides, screened at 100 nM (by protocol), cells primed 5 h with Pam3CSK4 first
In all, about 53,000 sequences went through this assay and about 3,700 (7%) were called active.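 Rule for the calls: active = gene knockdowns whose robust z-score for IL-1 alpha signal is at least 2 or at most -2, so actives lie on both sides; inactive = the rest.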 Only a selection was taken, and actives are over-represented in it overall.
A correct response names exactly one class from Y (active), N (inactive)

Examples with answers:
Call for entry GUCAUCAAUCAAGUCUUGATT against Olfr1408 : N

Call for entry CGUGGUCUUCACGAUUGGATT against Pde4c : Y

Field: next sequence
Call for entry GGUGAUUACUCUUAUGUGATT against Slc7a8 : N

----------
- assay procedure: Components of the Cytosolic LPS Sensing Pathway: Gene Identification via Genome-wide siRNA Screen
- measurement context: RAW264.7 macrophages, IL-1a HTRF, actives lie on both sides, screened at 100 nM (by protocol), cells primed 5 h with Pam3CSK4 first
The campaign covered roughly 53,000 sequences. About 3,700 (7%) were called active. This excerpt belongs to a sample that is enriched for actives.
Use z-score to assign classes; range list: c1 (below 0.05), c2 (0.05 to below 2), c3 (2 or more)

Examples with answers:
Place this sequence in its band: GGAAACAGGAAACAAUCUATT against Ccdc69 c2

Place this sequence in its band: GGAACAACCACGGAACCCATT against Il1r2 c2

Place this sequence in its band: CCACGACACGCAAGAUGAGTT against Fzd8 c1

Place this sequence in its band: CCUCUACAUCCAGGAAUGATT against Map4k1 c1

Place this sequence in its band: GGUGAUAACUCCGGGCCAATT against Fam3b c3

Others:
Place this sequence in its band: GGUGUGUUUUAUGUGUCCCTT against Ctif c3

Place this sequence in its band: GGCAUGAUUAUUGUGUUUGTT against Abcb11 c2

Place this sequence in its band: CGAGCAUUCACCGUACGUATT against Id4 c2

Place this sequence in its band: GCCUGAUAGUGGUGGACAGTT against Tmem45a2 c3

Place this sequence in its band: GGGCACCUAGUUUCCAUGATT against Cox7b c1

Place this sequence in its band: GGCAUUGAGAUGCUGGAAATT against Trappc4 c3

Place this sequence in its band: GCUUGGCCGUGAUUGUUGCTT against Fndc10 c3

----------
- assay procedure: Components of the Cytosolic LPS Sensing Pathway: Gene Identification via Genome-wide siRNA Screen;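 note: robust z of the log signal after scaling to non-targeting control siRNA wells of the plate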
- measurement context: RAW264.7 macrophages, IL-1a HTRF, actives lie on both sides, screened at 100 nM (by protocol), cells primed 5 h with Pam3CSK4 first
The campaign covered roughly 53,000 sequences. About 3,700 (7%) were called active.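 Rule for the calls: active = gene knockdowns whose robust z-score for IL-1 alpha signal is at least 2 or at most -2, so actives lie on both sides; inactive = the rest.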 The full list was thinned out, with actives kept by preference.
A correct response names exactly one class from Yes = active, No = inactive

Call for entry GAUGCCUUUUAUGGGUGCATT against Olfr61 : No

Call for entry GGAUACAAGAAACCUUAAGTT against Os9 : No

Call for entry GCGCGACCUUCGAAUGUAATT against Rnf5 : No

Others:
Call for entry GCAAAUAAGAUUGCGUCUGTT against Cpa2 : Yes

Call for entry GGAGGUUGUGAUCUUGAAATT against Tbc1d23 : No

Call for entry GGCAGUUCAUGUUUAAAGATT against Fgfr1op2 : No

----------
- assay procedure: Components of the Cytosolic LPS Sensing Pathway: Gene Identification via Genome-wide siRNA Screen;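 note: robust z of the log signal after scaling to non-targeting control siRNA wells of the plate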
- measurement context: RAW264.7 macrophages, IL-1a HTRF, actives lie on both sides, screened at 100 nM (by protocol), cells primed 5 h with Pam3CSK4 first
- Description: Non-canonical inflammasome activation by cytosolic LPS is a critical component of the host response to Gram-negative bacterial infection, however we lack a comprehensive understanding of the cellular processes that control this pathway. […] Lipofectamine RNAiMAX Transfection Reagent ([…]; Invitrogen) was added in […] serum-free, antibiotic-free media to plate wells using a Thermo Scientific Matrix WellMate and Microplate Stacker. […] The plates were read on an EnVision plate reader (PerkinElmer). […]
In all, about 53,000 sequences went through this assay and about 3,700 (7%) were called active.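 Rule for the calls: active = gene knockdowns whose robust z-score for IL-1 alpha signal is at least 2 or at most -2, so actives lie on both sides; inactive = the rest.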 The sample as a whole holds a higher share of actives than the screen did.
A correct response names exactly one class from Yes for active, No for inactive

Examples with answers:
Call for entry CGAGAGAAGCCCAUCAUCATT against Nrg4 : No

Call for entry GCUAUAUUGUUAGCACACATT against Hmgn2 : No

Call for entry GGUGGACUUAUAUGGUUUUTT against St3gal1 : No

Call for entry GGCCCUUCAUGAAGAGCAATT against Carf : Yes

Call for entry GGAUCAUCAACCAUCUAAUTT against Srsf7 : No

Call for entry GGCCUAUCAGAUAAAGAAGTT against Vps37b : No

Call for entry GCUCUCACCAUCAGAGAAATT against Trpc4 : No

Call for entry CGAGAAGUGCUGACUCAAUTT against Map2k3os : No

Call for entry GGAGAUCUCAGAGAGUGAGTT against Atn1 : Yes

Call for entry GCUCCUAGGAACUUGGUUATT against Pacsin2 : No

Others:
Call for entry GGUACUUCCUACCUAACAGTT against Nipa1 : No

Call for entry CCAAUUGCUAAUCCUUUGUTT against Pin1 : No

----------
- assay procedure: Components of the Cytosolic LPS Sensing Pathway: Gene Identification via Genome-wide siRNA Screen;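 note: robust z of the log signal after scaling to non-targeting control siRNA wells of the plate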
- measurement context: RAW264.7 macrophages, IL-1a HTRF, actives lie on both sides, screened at 100 nM (by protocol), cells primed 5 h with Pam3CSK4 first
The campaign covered roughly 53,000 sequences. About 3,700 (7%) were called active. The sample as a whole holds a higher share of actives than the screen did.
measurement name: z-score
Give bare numbers.

Please look up its z-score: CGUUUUCAGAGAUGUGCGCTT against Cmtm5 -1

Please look up its z-score: AGUUAGCCUUGAGGAGAAUTT against Olfr1512 0.503

Please look up its z-score: GGCAGUAGCCUUGUCUGUCTT against Prrx2 -1.42

Please look up its z-score: GGUCUUUGAAUGGAACAAUTT against Aldh7a1 -1.04

Please look up its z-score: GGAAGAAAACGCAACUAUATT against Atp1b3 0.246

Please look up its z-score: GGCAUUGUUUUCAUUGUGGTT against Cldn7 -0.0872

List the reported z-score of each sequence below.
1. GGUUUUAUCAGAAUGUCAGTT against Atpaf2
2. CCAGUACAGAUGUGUUAAATT against N4bp2l2
3. GGCCAAUUUCUUCACUUCUTT against Ints11
4. GGUGAGACAGAUAAAGUUCTT against Olfr1124
5. GGCCUGCUACUUUUGAUGCTT against Olfr166
6. GGAAAGAUCAUGGACAAGUTT against Dtna

1: 0.464; 2: 1.68; 3: -0.809; 4: 1.15; 5: 0.0524; 6: 2.06

----------
- assay procedure: Components of the Cytosolic LPS Sensing Pathway: Gene Identification via Genome-wide siRNA Screen;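 note: robust z of the log signal after scaling to non-targeting control siRNA wells of the plate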
- measurement context: RAW264.7 macrophages, IL-1a HTRF, actives lie on both sides, screened at 100 nM (by protocol), cells primed 5 h with Pam3CSK4 first
In all, about 53,000 sequences went through this assay and about 3,700 (7%) were called active.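 Rule for the calls: active = gene knockdowns whose robust z-score for IL-1 alpha signal is at least 2 or at most -2, so actives lie on both sides; inactive = the rest.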 The sample as a whole holds a higher share of actives than the screen did.
A correct response names exactly one class from Yes (active), No (inactive)

Examples with answers:
Call for entry GGCUGUCAUGCAUUAUAUGTT against Tfeb : No

Call for entry GCUGCACGCACUGAUCAAGTT against Tjap1 : No

Call for entry CGGUUAGAUGAGCUUGAGATT against Smad2 : No

Call for entry GGAAACACCAAGAUUCCAGTT against Sprr3 : No

Call for entry GGUCAAAGUUAUGCAAUGUTT against Rp9 : Yes

Others:
Call for entry GGCGAACAGAGAGAGUUAGTT against 4921524J17Rik : No
